Test system: throat (Adam's apple, jugular notch, upper chest)
Assay type: in vivo, human
conditionParameters: in vivo
attributeMeasured: Discomfort
No unit in the answer, please; the number alone is enough.

> print(dat)
                                   compound                              testedtarget  measurednumber
1  CC1CCC(C(C)C)C(C(=O)OCC(O)CO)C1 (stereo not shown) [WS-30]  throat (Adam's apple, jugular notch, upper chest)               0

Please examine the following record next.
Prompt: Kindly state the measured Discomfort obtained for COc1ccc(NC(=O)[C@@H]2C[C@H](C)CC[C@H]2C(C)C)cc1 [WS-12] with throat (Adam's apple, jugular notch, upper chest).
Completion: 0

---

testedTarget: cloned hTRPM8 channel (human TRPM8 gene, expressed in CHO cells) (Homo sapiens, UniProt Q7Z2W7)
Construct: host or cells: CHO cells
Sequence (Q7Z2W7 whole entry): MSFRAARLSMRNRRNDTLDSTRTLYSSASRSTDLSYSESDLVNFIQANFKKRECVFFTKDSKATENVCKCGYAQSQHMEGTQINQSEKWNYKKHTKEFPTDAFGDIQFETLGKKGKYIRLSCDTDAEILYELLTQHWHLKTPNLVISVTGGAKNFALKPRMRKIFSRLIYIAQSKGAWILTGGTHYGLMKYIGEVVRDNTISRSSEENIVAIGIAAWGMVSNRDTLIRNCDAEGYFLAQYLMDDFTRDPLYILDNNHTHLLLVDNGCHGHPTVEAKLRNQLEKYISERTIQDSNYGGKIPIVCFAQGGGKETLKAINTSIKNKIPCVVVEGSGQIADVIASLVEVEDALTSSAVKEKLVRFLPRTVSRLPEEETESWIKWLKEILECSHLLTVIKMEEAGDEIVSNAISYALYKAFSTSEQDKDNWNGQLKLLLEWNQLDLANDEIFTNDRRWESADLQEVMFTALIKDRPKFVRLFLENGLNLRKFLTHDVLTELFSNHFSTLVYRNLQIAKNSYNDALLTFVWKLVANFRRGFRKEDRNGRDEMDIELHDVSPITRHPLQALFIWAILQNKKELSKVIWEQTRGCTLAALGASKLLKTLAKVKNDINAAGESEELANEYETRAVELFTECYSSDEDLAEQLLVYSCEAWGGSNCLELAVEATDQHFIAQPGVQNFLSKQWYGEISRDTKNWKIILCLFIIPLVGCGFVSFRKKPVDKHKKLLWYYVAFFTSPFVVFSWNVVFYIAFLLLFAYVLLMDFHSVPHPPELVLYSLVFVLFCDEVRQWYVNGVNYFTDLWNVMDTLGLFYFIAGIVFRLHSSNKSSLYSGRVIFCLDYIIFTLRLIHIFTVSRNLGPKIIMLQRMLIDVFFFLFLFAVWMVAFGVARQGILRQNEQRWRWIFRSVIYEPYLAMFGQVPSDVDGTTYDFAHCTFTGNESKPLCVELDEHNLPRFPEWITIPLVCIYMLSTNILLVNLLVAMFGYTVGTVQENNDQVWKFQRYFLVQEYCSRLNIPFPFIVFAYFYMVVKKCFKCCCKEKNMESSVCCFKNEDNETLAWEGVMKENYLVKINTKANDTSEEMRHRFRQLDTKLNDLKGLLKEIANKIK
measurementDescription: TRPM8 agonist activity, Fluo-8 calcium FLIPR assay
Format: cell-based
conditionParameters: p-menthane compounds, Table 8
attributeMeasured: Potency relative to menthol
Number, no unit, nothing else.

Some compounds with known Potency relative to menthol results, for comparison:
> print(dat)
                                   compound  measurednumber
1  CC(C)OC(=O)C(C)NC(=O)[C@@H]1C[C@H](C)CC[C@H]1C(C)C (stereo partly shown)            14.6
2  CCOC(=O)CNC(=O)[C@@H]1C[C@H](C)CC[C@H]1C(C)C            10.6
3  CC(C)OC(=O)CNC(=O)[C@@H]1C[C@H](C)CC[C@H]1C(C)C             7.6

Prompt: Need Potency relative to menthol, item CCOC(=O)C(C)NC(=O)[C@@H]1C[C@H](C)CC[C@H]1C(C)C (stereo partly shown)
Completion: 14.0

---

testedTarget: cloned hTRPM8 channel (human TRPM8 gene, expressed in CHO cells) (Homo sapiens, UniProt Q7Z2W7)
measurementDescription: TRPM8 agonist activity, Fluo-8 calcium FLIPR assay
conditionParameters: p-menthane compounds, Table 8; 95% limits printed in line below
attributeMeasured: pEC50
Just so you know, pEC50 here is -log10 of the concentration in molar units; reply with that number alone.

> print(dat)
                             smilesnotation  attributemeasured  measurednumber
1  CCOC(=O)CNC(=O)[C@@H]1C[C@H](C)CC[C@H]1C(C)C              pEC50            6.44

Kindly consider the entry below.
Prompt: Recorded pEC50 of `CC(C)OC(=O)CNC(=O)[C@@H]1C[C@H](C)CC[C@H]1C(C)C` , please.
Completion: 6.30

---

testedTarget: cloned hTRPM8 channel (human TRPM8 gene, expressed in CHO cells) (Homo sapiens)
Construct: host or cells: CHO cells
measurementDescription: TRPM8 agonist activity, Fluo-8 calcium FLIPR assay
Type: cell-based
conditionParameters: from TRPM8 EC50, menthol = 1.0
attributeMeasured: Relative Potency to L-menthol
Answer as a number with no unit attached.

Sample answers from the record:
> print(dat)
                                   molecule  measurednumber
1                  CCCCCCCP(=O)(C(C)C)C(C)C             5.4
2  CCCCCCCCP(=O)(C(C)CC)C(C)CC (stereo not drawn) [DAPA-2-8, 1-Di(sec-butyl)-phosphinoyl-octane]             2.9
3                   CCCCCCP(=O)(C(C)C)C(C)C             1.6
4                    CCCCCP(=O)(C(C)C)C(C)C             0.7
5  CCCCCP(=O)(C(C)CC)C(C)CC (stereo not drawn)             2.2

Prompt: What Relative Potency to L-menthol value was documented for this molecule, `CCCCCCCCCP(=O)(C(C)C)C(C)C` ?
Completion: 4.0

Prompt: Now consider `CCCCCCCCP(=O)(C(C)C)C(C)C` .
Completion: 5.4

Prompt: Another: CCCCCCCP(=O)(C(C)CC)C(C)CC (stereo not drawn) [DAPA-2-7, 1-Di(sec-butyl)-phosphinoyl-heptane]
Completion: 3.4

Prompt: And the next one, CCC(C)P(=O)(CCC(C)C)C(C)CC (stereo not drawn) ?
Completion: 0.9

Prompt: Then CCCCP(=O)(C(C)CC)C(C)CC (stereo not drawn) [DAPA-2-4, 1-Di(sec-butyl)-phosphinoyl-butane] ?
Completion: 0.3

Prompt: Let us now turn to `CCCCCP(=O)(CC(C)C)CC(C)C`
Completion: 0.2

Prompt: Also need CCCCCCP(=O)(C(C)CC)C(C)CC (stereo not drawn) [DAPA-2-6, 1-Di(sec-butyl)-phosphinoyl-hexane] , thanks.
Completion: 4.7

src = patent US20220378807A1
